meta.source: patent US8952024B2

Test system: ducksalad (Heteranthera limosa)
Assay: Test B flooded paddy test
Assay type: in vivo
Details: Flood (flooded paddy test), 62 g ai/ha; scale of 0 to 100 where 0 is no effect and 100 is complete control; 13 to 15 days
readout: Plant response rating, Ducksalad

A selection of reference data follows.
INSERT INTO measurements (molecule, experimentalsystem, reading) VALUES
  ('CCCn1c(C2CC2)ncc(C(=O)C2=C(O)CCCC2=O)c1=O [Compound 153]', 'ducksalad (Heteranthera limosa)', 65),
  ('COCCn1c(-c2cccc(Br)c2)ncc(C(=O)C2=C(O)CCCC2=O)c1=O [Compound 139]', 'ducksalad (Heteranthera limosa)', 75),
  ('CCn1c(-c2ccccc2)ncc(C(=O)C2=C(O)CCCC2=O)c1=O [Compound 49]', 'ducksalad (Heteranthera limosa)', 0),
  ('CCCn1c(-c2ccccc2)ncc(C(=O)C2=C(O)CCCC2=O)c1=O [Compound 50]', 'ducksalad (Heteranthera limosa)', 75);

Recall the reported Plant response rating, Ducksalad of CCc1ccc(-n2c(-c3cccc(C)c3)ncc(C(=O)C3=C(O)CCCC3=O)c2=O)cc1 [Compound 213] when tested on ducksalad (Heteranthera limosa).
85
